System: KB-3-1
Protocol description: Cytotoxic Profiling of Annotated Libraries Using Quantitative High-Throughput Screening (AID 1296008); further: on the % scale 0 is the no-effect control and ±100 the full control effect; nearly all actives have a fitted effect of over 60% in size
Condition parameters: Five cell lines viability, CellTiter-Glo ATP luminescence, 48-72 h; active compounds read low
Records with an inconclusive call do not appear.
Reported property: max response (%)

compound=Nc1ncnc2c1ncn2[C@@H]1O[C@H](CO)[C@@H](O)[C@H]1O output_unit=% value_reported=15.4
compound=O=c1[nH]cnc2c1ncn2[C@@H]1O[C@H](CO)[C@@H](O)[C@H]1O output_unit=% value_reported=7.98
compound=COc1ccc2cc1Oc1cc3c(cc1OC)CC[N+](C)(C)[C@H]3Cc1ccc(cc1)Oc1c(OC)c(OC)cc3c1[C@@H](C2)[N+](C)(C)CC3 output_unit=% value_reported=0.968
compound=C/C(=C(\CCOP(=O)(O)O)SC(=O)c1ccccc1)N(C=O)Cc1cnc(C)nc1N output_unit=% value_reported=9.44
compound="NC(CSCC(=O)O)C(=O)O (configuration not stated)" output_unit=% value_reported=-5.75
compound=O=C1NS(=O)(=O)c2ccccc21 output_unit=% value_reported=20.6
compound="CCN(CC)CCNC(C(=O)OCCC(C)C)c1ccccc1 (configuration not stated)" output_unit=% value_reported=11.9
compound="CC(CN1c2ccccc2Sc2ccccc21)N(C)C (configuration not stated)" output_unit=% value_reported=7.29
compound=CCCCN(CCCC)CCCOC(=O)c1ccc(N)cc1 output_unit=% value_reported=-15.2
compound=CC1=C(/C=C/C(C)=C/C=C/C(C)=C/C(=O)O)C(C)(C)CCC1 output_unit=% value_reported=-14.5
compound="CC(C(O)c1ccc(O)cc1)N1CCC(Cc2ccccc2)CC1 (configuration not stated)" output_unit=% value_reported=-5.14
compound=Oc1cccc(O)c1 output_unit=% value_reported=-21.4
compound=C=CCn1c(=O)n([C@@H]2O[C@H](CO)[C@@H](O)[C@H]2O)c2nc(N)[nH]c(=O)c21 output_unit=% value_reported=17
compound=NCCNCCNCCNCCN output_unit=% value_reported=-4.72
compound=O=C(O)c1ccccn1 output_unit=% value_reported=-2.2
compound=NS(=O)(=O)c1cc2c(cc1Cl)NC(CSCc1ccccc1)=NS2(=O)=O output_unit=% value_reported=1.03
compound=N[C@@H](CSCCCO)C(=O)O output_unit=% value_reported=-1.02
compound=C[C@@H]1CC[C@@]2(OC1)O[C@H]1C[C@H]3[C@@H]4CC[C@H]5C[C@@H](O)CC[C@]5(C)[C@H]4CC(=O)[C@]3(C)[C@H]1[C@@H]2C output_unit=% value_reported=1.37
compound="CN1CCN(C2Cc3ccccc3Sc3ccc(Cl)cc32)CC1 (configuration not stated)" output_unit=% value_reported=6.06
compound="CC(O)COc1ccccc1 (configuration not stated)" output_unit=% value_reported=5.08
compound="CCCCCCCCCCCCCCCCCCOCC(O)CO (configuration not stated)" output_unit=% value_reported=4.03
compound=CCN(CC)CCNC(=O)c1c(C)[nH]c(/C=C2\C(=O)Nc3ccc(F)cc32)c1C output_unit=% value_reported=-5.42
compound=CC(=O)c1ccc2c(c1)N(CCCN(C)C)c1ccccc1S2 output_unit=% value_reported=-1.52
compound=CC(C)(C)C(=O)NCCCC(=O)O output_unit=% value_reported=-0.595
compound=CCCOC(=O)c1ccccc1 output_unit=% value_reported=-10.8
compound=C[C@H](N)[C@H](O)c1cccc(O)c1 output_unit=% value_reported=1.71
compound="CCCCN(CCCC)CC(O)c1cc(Cl)cc2c1-c1ccc(Cl)cc1/C2=C/c1ccc(Cl)cc1 (configuration not stated)" output_unit=% value_reported=-7.25
